- Measured Target: Genome polyprotein (dengue virus type 2, UniProt P29990)
- Sequence (P29990 1346-1475 limits assumed): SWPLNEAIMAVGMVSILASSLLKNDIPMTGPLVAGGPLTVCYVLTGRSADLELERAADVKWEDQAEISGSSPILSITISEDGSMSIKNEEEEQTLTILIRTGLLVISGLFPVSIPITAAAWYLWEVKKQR
- Sequence (P29990 1476-2093 limits assumed): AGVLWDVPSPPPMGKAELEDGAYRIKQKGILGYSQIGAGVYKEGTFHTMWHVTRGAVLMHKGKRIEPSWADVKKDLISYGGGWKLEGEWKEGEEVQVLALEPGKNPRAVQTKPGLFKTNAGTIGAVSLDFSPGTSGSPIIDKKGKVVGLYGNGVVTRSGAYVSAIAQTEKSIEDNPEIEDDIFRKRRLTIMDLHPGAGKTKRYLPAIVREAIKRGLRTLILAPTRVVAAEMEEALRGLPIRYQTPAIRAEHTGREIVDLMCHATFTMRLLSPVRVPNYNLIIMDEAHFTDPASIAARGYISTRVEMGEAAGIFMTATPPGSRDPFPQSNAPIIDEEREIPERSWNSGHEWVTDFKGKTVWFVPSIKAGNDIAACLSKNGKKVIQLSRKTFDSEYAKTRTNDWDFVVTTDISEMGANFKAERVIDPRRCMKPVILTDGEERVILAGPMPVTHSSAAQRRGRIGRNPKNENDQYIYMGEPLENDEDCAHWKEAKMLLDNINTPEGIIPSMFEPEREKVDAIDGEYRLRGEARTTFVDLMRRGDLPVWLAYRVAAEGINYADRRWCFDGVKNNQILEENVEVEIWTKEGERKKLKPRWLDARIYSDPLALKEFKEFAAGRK
- Protocol Notes: Inhibition of C-terminal His6-tagged linked Dengue virus serotype 2 NS2B-NS3 protease domain expressed in Escherichia coli Bl21(DE3) preincubated for 15 mins followed by Abz-Nle-Lys-Arg-Arg-Ser-3-(NO2)Tyr substrate addition and measured for 15 mins by fluorescence method
Positions of bridges follow the written chain, without caps; N, C: chain ends. Non-standard residues stand in square brackets, D forms with d. Residues, ends and D or L forms follow the SMILES beside them. NMeY = CN[C@@H](Cc1ccc(O)cc1)C(=O)O; NMeF = CN[C@@H](Cc1ccccc1)C(=O)O; NMeS = CN[C@@H](CO)C(=O)O; Sar = CNCC(=O)O
Assay Readout: IC50

Solved cases below.
* CC[C@H](C)[C@@H]1NC(=O)CN(C)C(=O)[C@H](Cc2ccc(O)cc2)NC(=O)CSC[C@@H](C(N)=O)NC(=O)[C@@H]2CCCN2C(=O)[C@H]([C@@H](C)CC)NC(=O)[C@H](Cc2ccc(OC)cc2)N(C)C(=O)[C@H](Cc2ccc(OC)cc2)N(C)C(=O)[C@H](CC(N)=O)NC(=O)[C@H](Cc2ccc(O)cc2)NC(=O)[C@H](CCCCN)NC(=O)[C@H](C)NC1=O ({CH2CO}-Y[Sar]IAKYN[NMeY](Me)[NMeY](Me)IPC-NH2; thioether N-12) | ≥ 20 µM
* COc1ccc(C[C@H]2C(=O)N[C@@H](CCCCN)C(=O)N(C)[C@@H](Cc3ccccc3)C(=O)N[C@@H](CCCCN)C(=O)N(C)[C@@H](CO)C(=O)N(C)[C@@H](Cc3ccc(OC)cc3)C(=O)N[C@@H](CCCCN)C(=O)N(C)[C@@H](Cc3ccc(OC)cc3)C(=O)N(C)[C@@H](Cc3ccc(OC)cc3)C(=O)N[C@@H](CCCCN)C(=O)N[C@H](C(N)=O)CSCC(=O)N[C@@H](Cc3ccc(O)cc3)C(=O)N2C)cc1 ({CH2CO}-Y[NMeY](Me)K[NMeF]K[NMeS][NMeY](Me)K[NMeY](Me)[NMeY](Me)KC-NH2; thioether N-12) | 1.7 µM
* COc1ccc(C[C@H]2C(=O)N[C@@H](Cc3ccccc3)C(=O)N[C@H](C(N)=O)CSCC(=O)N[C@@H](Cc3ccc(O)cc3)C(=O)N[C@@H]([C@@H](C)O)C(=O)N[C@@H](CC(N)=O)C(=O)N[C@@H](Cc3ccccc3)C(=O)N[C@@H](Cc3ccc(O)cc3)C(=O)N[C@@H](CC(C)C)C(=O)N[C@@H](Cc3ccc(O)cc3)C(=O)N3CCC[C@H]3C(=O)N[C@@H](Cc3ccc(O)cc3)C(=O)N2C)cc1 ({CH2CO}-YTNFYLYPY[NMeY](Me)FC-NH2; thioether N-12) | > 20 µM
* CC[C@H](C)[C@@H]1NC(=O)[C@H](C)NC(=O)[C@@H](Cc2ccc(O)cc2)NC(=O)CSC[C@@H](C(N)=O)NC(=O)[C@H](CC(N)=O)NC(=O)[C@H](CC(C)C)N(C)C(=O)[C@H](Cc2ccc(O)cc2)NC(=O)[C@H](CCCCN)NC(=O)[C@H](CC(N)=O)NC(=O)[C@H](Cc2ccc(O)cc2)NC(=O)[C@H](Cc2ccc(OC)cc2)N(C)C(=O)[C@H]([C@@H](C)CC)NC1=O | > 20 µM
* CC[C@H](C)[C@@H]1NC(=O)[C@H](CC(N)=O)NC(=O)[C@H](C(C)C)NC(=O)[C@H](CC(C)C)NC(=O)[C@H]([C@@H](C)O)NC(=O)[C@H](CC(N)=O)NC(=O)[C@H](Cc2ccc(OC)cc2)N(C)C(=O)[C@H]([C@@H](C)CC)NC(=O)[C@H](CCCCN)NC(=O)[C@H](Cc2c[nH]c3ccccc23)NC(=O)[C@H](Cc2ccc(O)cc2)NC(=O)CSC[C@@H](C(N)=O)NC1=O ({CH2CO}-YWKI[NMeY](Me)NTLVNIC-NH2; thioether N-12) | > 10 µM

Consider the additional compound presented here.
According to the records, this compound CC(C)C[C@@H]1NC(=O)[C@H]([C@@H](C)O)NC(=O)[C@H](Cc2ccc(O)cc2)NC(=O)CSC[C@@H](C(N)=O)NC(=O)[C@H](Cc2ccccc2)NC(=O)[C@H](Cc2ccccc2)NC(=O)[C@H]([C@@H](C)O)NC(=O)CN(C)C(=O)[C@H](CC(N)=O)NC(=O)[C@H](Cc2cnc[nH]2)NC(=O)[C@H](Cc2ccccc2)NC(=O)[C@@H]2CCCN2C1=O ({CH2CO}-YTLPFHN[Sar]TFFC-NH2; thioether N-12) displays IC50 of > 20 µM
